- Assay notes: Cytotoxicity against C57BL/6 mouse BV-2 cells assessed as survival rate at 30 uM incubated for 24 hrs by MTT assay relative to control
- Assay type: toxicity, cell-based
- Conditions used: read-out: Survival
I'd appreciate it if you could supply viability at 24 h, 30 µM values for the items below.
Value expressed in %; do not type the unit.

viability at 24 h, 30 µM reading for CCN1C[C@]2(OC(=O)c3ccccc3NC(=O)S(=O)(=O)c3ccc(F)cc3F)CC[C@H](OC)[C@]34C1[C@@H](C[C@H]23)[C@@]1(O)C[C@H](OC)[C@H]2C[C@@H]4[C@]1(O)[C@H]2OC : 103

viability at 24 h, 30 µM reading for CCC(=O)Nc1ccccc1C(=O)O[C@@]12CC[C@H](OC)[C@]34C([C@@H](C[C@H]13)[C@@]1(O)C[C@H](OC)[C@H]3C[C@@H]4[C@]1(O)[C@H]3OC)N(CC)C2 : 96.1

viability at 24 h, 30 µM reading for CCN1C[C@]2(OC(=O)c3ccccc3NC(=O)C3CCCO3)CC[C@H](OC)[C@]34C1[C@@H](C[C@H]23)[C@@]1(O)C[C@H](OC)[C@H]2C[C@@H]4[C@]1(O)[C@H]2OC (stereo partly drawn) : 108
